endpoint: IC50

Param request: IC50 | system CYP1A2 (Homo sapiens, UniProt P05177) | item O=C(O)[C@H]1O[C@@H](Oc2cc3oc(-c4ccc(O)cc4)cc(=O)c3c(O)c2O)[C@H](O)[C@@H](O)[C@@H]1O [scutellarin, Scutellarin]
> 100 µM

###

Biological target: CYP1A2 (Rattus norvegicus)
Sequence (P04799 1-513): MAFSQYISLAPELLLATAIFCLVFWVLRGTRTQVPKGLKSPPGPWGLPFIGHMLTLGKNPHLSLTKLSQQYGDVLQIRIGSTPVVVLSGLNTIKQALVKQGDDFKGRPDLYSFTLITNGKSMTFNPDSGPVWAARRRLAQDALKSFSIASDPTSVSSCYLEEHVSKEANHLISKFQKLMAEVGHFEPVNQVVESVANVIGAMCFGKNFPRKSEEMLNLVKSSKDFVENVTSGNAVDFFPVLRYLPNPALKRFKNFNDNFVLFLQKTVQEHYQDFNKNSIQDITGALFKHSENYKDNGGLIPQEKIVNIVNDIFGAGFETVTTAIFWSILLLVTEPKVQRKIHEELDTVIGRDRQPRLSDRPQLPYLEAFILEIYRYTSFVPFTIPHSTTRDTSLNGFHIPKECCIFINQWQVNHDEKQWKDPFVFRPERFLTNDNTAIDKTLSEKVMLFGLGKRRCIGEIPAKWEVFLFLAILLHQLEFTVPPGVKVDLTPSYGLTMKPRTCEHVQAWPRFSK
pIC50: −log10 of the molar value.
endpoint: pIC50

Give the measured pIC50 for `O=C(O)[C@H]1O[C@@H](Oc2cc3oc(-c4ccc(O)cc4)cc(=O)c3c(O)c2O)[C@H](O)[C@@H](O)[C@@H]1O`
< 4.00

###

Molecular target: CYP2C7 (Rattus norvegicus, UniProt P05179)
Sequence (P05179 1-490): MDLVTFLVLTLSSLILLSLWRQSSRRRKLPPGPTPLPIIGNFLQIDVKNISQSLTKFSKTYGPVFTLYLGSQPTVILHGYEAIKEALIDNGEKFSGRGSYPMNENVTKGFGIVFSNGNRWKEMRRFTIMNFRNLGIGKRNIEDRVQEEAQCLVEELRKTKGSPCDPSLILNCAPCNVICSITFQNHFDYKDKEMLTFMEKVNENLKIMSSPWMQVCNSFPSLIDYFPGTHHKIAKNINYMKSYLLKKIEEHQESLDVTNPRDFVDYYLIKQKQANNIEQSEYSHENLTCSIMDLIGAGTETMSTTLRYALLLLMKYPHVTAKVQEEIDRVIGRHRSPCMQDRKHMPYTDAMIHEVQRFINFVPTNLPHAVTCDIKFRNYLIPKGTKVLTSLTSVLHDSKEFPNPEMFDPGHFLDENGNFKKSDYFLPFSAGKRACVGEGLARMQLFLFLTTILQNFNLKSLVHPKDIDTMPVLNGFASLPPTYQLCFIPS
endpoint: IC50 (µM)
Report as a plain number; the unit µM is understood.

Give the measured IC50 for O=C(O)[C@H]1O[C@@H](Oc2cc3oc(-c4ccc(O)cc4)cc(=O)c3c(O)c2O)[C@H](O)[C@@H](O)[C@@H]1O [scutellarin, Scutellarin]
63.1

###

Target: CYP2C8 (Homo sapiens, UniProt P10632)
Sequence (P10632 1-490): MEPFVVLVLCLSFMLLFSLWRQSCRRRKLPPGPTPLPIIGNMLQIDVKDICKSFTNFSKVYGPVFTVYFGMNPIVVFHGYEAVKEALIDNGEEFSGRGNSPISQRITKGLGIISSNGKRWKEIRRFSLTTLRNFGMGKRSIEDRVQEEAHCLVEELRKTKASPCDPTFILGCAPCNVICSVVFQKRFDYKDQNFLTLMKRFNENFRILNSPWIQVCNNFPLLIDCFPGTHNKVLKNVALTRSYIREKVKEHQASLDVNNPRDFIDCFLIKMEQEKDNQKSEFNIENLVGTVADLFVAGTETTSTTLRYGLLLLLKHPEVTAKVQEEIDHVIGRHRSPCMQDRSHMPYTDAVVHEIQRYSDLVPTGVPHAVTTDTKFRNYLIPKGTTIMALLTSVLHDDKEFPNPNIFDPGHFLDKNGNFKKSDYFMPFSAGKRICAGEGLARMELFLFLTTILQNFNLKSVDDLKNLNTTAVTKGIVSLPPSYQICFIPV
pIC50: −log10 of the molar value.
endpoint: pIC50

Give the measured pIC50 for O=C(O)[C@H]1O[C@@H](Oc2cc3oc(-c4ccc(O)cc4)cc(=O)c3c(O)c2O)[C@H](O)[C@@H](O)[C@@H]1O [scutellarin, Scutellarin]
< 4.00
